B1: Pistol ribozyme (parent)
chain: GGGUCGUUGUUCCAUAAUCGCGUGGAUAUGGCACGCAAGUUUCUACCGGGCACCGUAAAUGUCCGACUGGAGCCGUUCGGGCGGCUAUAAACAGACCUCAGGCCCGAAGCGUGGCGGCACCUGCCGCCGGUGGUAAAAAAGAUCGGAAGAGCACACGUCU

Variants of: B1
test.name: aptazyme ON/OFF ratio, guanine; higher = stronger switching; co-transcriptional cleavage with and without guanine
# aptazyme ON/OFF ratio per record follows
When you answer, write just the number.

Data request: Identify aptazyme ON/OFF ratio associated with the variant U7C U8G G9C U10A U11C
Data returned: 1.03
